System: HMLE_sh_eGFP viability, CellTiter-Glo luminescence, 72 h
Test: cytotoxicity in HMLE control line with eGFP shRNA, dose response, counter-screen for HMLE_sh_ECad selective toxicity project, cell-based, HMLE_sh_eGFP, luminescence (AID 463074);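 further: counterscreen control line to flag general toxicity for the HMLE_sh_ECad screen; potency for loss of viability as luminescence drops below DMSO wells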
ASSAY_ENDPOINT: AC50

AC50 reading for CCCOc1c(OC)cccc1C1CC(=O)Nc2cc3c(cc21)OCCO3 (stereo not given) : 2.95 µM

What the record says about Cc1ccc(OCCSc2nc(NC(C)C)nc(NC(C)C)n2)cc1 : AC50 is 1.46 µM

The reported AC50 of the compound Cc1ccc(N2C(=O)NC(=O)/C(=C/C=C/c3ccco3)C2=O)cc1 was 3.29 µM

Form: compound = C[C@H](CO)N1C[C@H](C)[C@H](CN(C)Cc2ccc(-c3ccccc3)cc2)Oc2ccc(NS(=O)(=O)c3ccccc3)cc2CC1=O ; AC50 = 4.74 µM

Looking up O=C(Nc1cccc(Cl)c1N1CCCCC1)c1ccc2c(c1)OCCO2 , I see its AC50 listed as 11.4 µM

====

Tested on: HMLE_sh_eGFP viability, CellTiter-Glo luminescence, 72 h
Assay: cytotoxicity in HMLE control line with eGFP shRNA, dose response, counter-screen for HMLE_sh_ECad selective toxicity project, cell-based, HMLE_sh_eGFP, luminescence (AID 463074);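 further: counterscreen control line to flag general toxicity for the HMLE_sh_ECad screen; potency for loss of viability as luminescence drops below DMSO wells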
The source made the active and inactive calls.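 Rule for the calls: active = AC50 no more than tenfold above the top dose tested, or full inhibition at every dose with a flat fit (cut at about 19 µM in these data); inconclusive = flat curve fit with inhibition between 30% and 70%, or poor fit; inactive = AC50 more than tenfold above the top dose tested.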
Please answer using one outcome listed in y for active, n for inactive

Problem: Dear colleague, could you share the recorded outcome for N#CC1=C(N)N2C(=C(C#N)C1c1ccc(Br)cc1)Nc1ccccc12 (stereo not drawn) when you have a moment?
Result: y

Problem: Give the logged outcome of this assay for the following molecule: Cc1cc(C)cc(C(=O)Nc2nnc(SCC(=O)N3CCCc4ccccc43)s2)c1
Result: n

Problem: // outcome(item) with item = OCCN1CCN(CCCN2c3ccccc3Sc3ccc(C(F)(F)F)cc32)CC1
Result: y

Problem: Which result was noted for this molecule in the test: Fc1ccc2[nH]c3c(N4CCc5ccccc5C4)ncnc3c2c1
Result: y

Problem: Status in this test for Oc1ccc(/C=N/Nc2ccc(C(F)(F)F)cn2)c(O)c1 ?
Result: y

Problem: Which outcome was assigned to COc1cccc(/C=N/NC(=O)c2ccc(-c3ccccc3)cc2)c1O in this test?
Result: y

Problem: Given CCc1ccc([C@@H]2CC=C(C(=O)O)[C@H](c3ccc(Cl)cc3)N2S(=O)(=O)c2ccc(C)cc2)cc1 , state the outcome it received in this test.
Result: y

Problem: Each molecule tested received a call. Report the one for O=C(Nc1ccc(OC(F)F)c(Cl)c1)Nc1ccc2c(c1)OCO2 .
Result: y

Problem: Check the results log: what was the call for CCc1ccc2[nH]c(=O)c(C3C(C#N)=C(N)Oc4c3ccc3cccnc43)cc2c1 (stereo not drawn) ?
Result: y

Problem: Hi team, can someone confirm the assay call for Cc1ccc(OCCCCN(C)Cc2ccccc2)c(Br)c1 ?
Result: y

Problem: // param item: CCCOc1c(Cl)cc(C(=O)Nc2ccc3c(c2)OCO3)cc1OCC ; yields the recorded call
Result: y

Problem: Per the assay record, what outcome was assigned to O=[N+]([O-])c1cc(C(F)(F)F)ccc1NCCNC(=S)Nc1ccc(Cl)cc1 ?
Result: y

Problem: Please let me know the test result on file for O=C(O)c1cccc(S(=O)(=O)NNc2ccccc2C(F)(F)F)c1 .
Result: y

Problem: For O=C(Nc1ccc(C(O)(C(F)(F)F)C(F)(F)F)cc1)c1ccc(Cl)c([N+](=O)[O-])c1 , which call appears in the assay record?
Result: y

Problem: Recorded call for O=C(NCc1ccco1)c1nc2c(nnn2Cc2ccccc2Cl)c(=O)[nH]1 ?
Result: y

Problem: Recorded test outcome, item Cc1ccc(C(NC(=O)C(C)C)c2cc([N+](=O)[O-])c3cccnc3c2O)cc1 (stereo not drawn)
Result: y

Problem: Called result for Cc1ccccc1OCC(O)Cn1c2ccccc2c2ccccc21 (stereo not drawn)
Result: y

Problem: Outcome logged for Cc1ccc(-c2nnc(N3CCC(C)CC3)c3ccccc23)cc1C in this assay:
Result: y

Problem: What did the test return for COc1ccccc1NC(=O)Nc1ccc(-n2ccc(C(F)(F)F)n2)cc1 ?
Result: y

Problem: For COc1cc(C#Cc2c(-c3cncn3C)n(C)c3ccc(-c4ccc(OC)nc4)cc23)cc(OC)c1 , which call appears in the assay record?
Result: y

Problem: For CCC(=O)NNc1ccc(Br)cc1 , which call appears in the assay record?
Result: y

Problem: Record lookup: outcome of this test for CCCc1cc(-c2nc(N)ncc2-c2ccc3c(c2)OCCCO3)c(O)cc1OC ?
Result: y

Problem: What was the test verdict on COc1ccc(CCC(C)NCC2CCCCC2)cc1 (stereo not drawn) ?
Result: y

Problem: I'd appreciate the recorded outcome for CCCOc1ccc2c(c1)C(=NN=C(N)N)c1cc(OCCC)ccc1-2 from this test.
Result: y

Problem: # lookup: test call for CC(=O)Oc1ccc(-c2csc(Nc3ccc(Cl)cn3)n2)cc1
Result: y

Problem: State the result this test recorded for O=C(NCCCSc1ccccc1)c1cc(Br)ccc1O .
Result: y

Problem: Entry CC(C)(C)c1cc(C=C(C#N)C#N)cc(C(C)(C)C)c1O : call = ?
Result: y

Problem: What call does the record list for O=C(NCc1ccco1)c1ccc2c(c1)N(Cc1ccccc1)CCS2 ?
Result: n

Problem: Give the logged outcome of this assay for the following molecule: O=c1/c(=C\c2cccc(O)c2)sc2nc(-c3ccccc3)c(-c3ccccc3)n12
Result: y

Problem: Write down the call the test reported for this molecule. Item: CCNC(=S)N1N=C2c3ccccc3CCC2C1c1ccc(F)cc1 (stereo not drawn)
Result: y

Problem: Short answer needed: outcome of this test for O=C(NNc1ccccc1Br)C(=O)n1ccc2ccccc21 ?
Result: y

Problem: For FC(F)(F)c1ccc(C2[C@H]3CN(Cc4cccnc4)[C@H](c4ccccc4)C34CC2(c2cccnc2)C4)cc1 (stereo partly drawn) , which call appears in the assay record?
Result: y

Problem: How was CCCCc1ccc(/C(C)=N/Nc2cc(N3CCOCC3)nc(C)n2)cc1 classified in this test?
Result: y

Problem: # fetch the recorded call for O=C(/C=C/c1ccco1)NCC1OCCc2ccccc21 (stereo not drawn) here
Result: n

Problem: What was the test verdict on CC(=O)C12CC(C)=C(C)CC1CC1C3CCC4=CC(=O)CCC4(C)C3CCC12C (stereo not drawn) ?
Result: y

Problem: Identify the outcome logged in this assay for the molecule shown: COc1ccc(NS(=O)(=O)c2ccc(O)c(NC(=O)c3cc4c(C)nn(-c5ccc(F)cc5)c4s3)c2)cc1
Result: y

Problem: // param item: COc1ccc(-c2oc3ccccc3c2C#Cc2cncn2C)cc1 ; yields the recorded call
Result: y

Problem: Per the records of this test, what outcome belongs to CN(C)C(CNS(=O)(=O)c1ccc2ccccc2c1)c1ccccc1 (stereo not drawn) ?
Result: n

Problem: Could you please tell me the result logged for Cc1ccc(NC(=O)c2nc[nH]c2C(=O)NCCCNC(=O)c2[nH]cnc2C(=O)Nc2ccc(C)cc2)cc1 in this assay?
Result: y

Problem: Lab log entry: Cc1cc(C)cc(NC(=O)Nc2ccc(NC(=O)c3ccccc3O)cc2)c1 — outcome as called in the assay?
Result: n

Problem: Short answer needed: outcome of this test for O=C(NC(=S)Nc1ccc(N2CCCCC2)c(Cl)c1)c1ccc2c(c1)OCCO2 ?
Result: y

Problem: Dear colleague, could you share the recorded outcome for CCCCCCOc1ccc(/C(C)=N/NC2=NCCN2)cc1 when you have a moment?
Result: y

Problem: Entry CC(C)(C)c1cc(C(=O)NNc2cccc(Cl)c2)n(Cc2ccccc2)n1 : call = ?
Result: y
